Examples of compounds with documented normalized growth follow.
# assay_text: chemical genetic growth profiling, strain panel (AID 1159580);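 further: tested at 20 µM; growth read once vehicle control cultures reached saturation at 30 °C; 1 = growth at the plate median or of vehicle wells; lower values mean less growth of the strain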
# cond: S. cerevisiae deletion strains, growth OD, locus YBR009C, strain hhf1, active compounds read low
Screen size: about 5,500 compounds; about 2,000 (36%) were called active. Inconclusive results (about 18%) are left out. The list shows a part of the results.
Number, no unit, nothing else.

Examples with answers:
{"compound": "Cc1ccnc(NS(=O)(=O)c2ccc(N)cc2)n1", "normalized growth": 1.01}
{"compound": "Cc1cc(-n2c(=O)[nH]c(=O)n(C)c2=O)ccc1Oc1ccc(SC(F)(F)F)cc1", "normalized growth": 0.552}
{"compound": "O=C1C(O)=C(O)C(=O)C(O)=C1O", "normalized growth": 0.992}
{"compound": "COc1ccc2c3c([nH]c2c1)C(C)=NCC3", "normalized growth": 0.989}
{"compound": "CC1(C)CCC2(C(=O)O)CCC3(C)C(=CCC4C5(C)CCC(O)C(C)(C)C5C(O)CC43C)C2C1 (stereo not drawn)", "normalized growth": 1.02}
{"compound": "CC(=O)O[C@@H]1CC[C@@]2(C)C(CC[C@]3(C)C2CC=C2C4CC(C)(C)CC[C@]4(C(=O)O)CC[C@]23C)C1(C)C (stereo partly drawn)", "normalized growth": 1.01}

Query: Need normalized growth of CC(C)(Oc1ccc(CCNC(=O)c2ccc(Cl)cc2)cc1)C(=O)O , thanks.
Response: 0.975

Query: Next compound up: Nc1c2ccccc2nc2ccccc12
Response: 0.378

Query: Similarly, C[C@@H]1CC[C@H]2[C@@H](C)C(=O)O[C@@H]3O[C@@]4(C)CC[C@@H]1[C@]32OO4 ?
Response: 0.788

Query: What do you have for CCN1C[C@]2(OC(=O)c3ccccc3NC(C)=O)CCC(OC)[C@]34C1[C@H](CC23)[C@@]1(O)CC(OC)[C@H]2CC4C1(O)[C@H]2OC (stereo partly drawn) ?
Response: 0.985

Query: Thanks! And C/C=C(/C)C(=O)O[C@@H]1[C@H](OC(C)=O)[C@@]2(CO)C(CC1(C)C)C1=CCC3[C@@]4(C)CC[C@H](O[C@@H]5O[C@H](C(=O)O)[C@@H](O[C@@H]6O[C@H](CO)[C@@H](O)[C@H](O)[C@H]6O)[C@H](O)[C@H]5O[C@@H]5O[C@H](CO)[C@@H](O)[C@H](O)[C@H]5O)[C@](C)(CO)C4CC[C@@]3(C)[C@]1(C)C[C@H]2O (stereo partly drawn) ?
Response: 0.938
